Assignment: determine reported MIC of β-lactam, combined for the given compounds.
System: USA400 MW2
Test: Checkerboard MIC assay with oxacillin
Type: cell-based, Staphylococcus aureus
Settings: oxacillin with TarO inhibitor at minimum sensitization concentration, USA400 MW2
One number for each entry, in µg/mL.

Record excerpt, results attached:
C[C@H]1[C@@H](c2cc(C(F)(F)F)cc(C(F)(F)F)c2)OC(=O)N1C(=O)CCN1CCCc2ccccc21
2
COc1cc(C(F)(F)F)cc([C@H]2OC(=O)N(C(=O)CCn3ccc(=O)c4cccnc43)[C@H]2C)n1 [Compound 18b]
8
C[C@H]1[C@@H](c2cc(C(F)(F)F)cc(C(F)(F)F)c2)OC(=O)N1C(=O)CCn1ccc(=O)c2cccnc21 [Compound 18a]
4

Okay, next one:
Q. What MIC of β-lactam, combined value was documented for this compound, C[C@H]1[C@@H](c2cc(C(F)(F)F)cc(C(F)(F)F)c2)OC(=O)N1C(=O)Cc1cccc2ccccc12 [Tarocin A, reference compound] ?
A. 8
